Cited source: paper PMC8561351

Listed here: items and their measured 15 μM inhibition (%).
biological target: HLA-A3001 (Homo sapiens, UniProt P04439, D140H/D185E/E176W/F33S/G80R/H175R/K168Q/R138E/R41S); assay: Competitive peptide binding assay, HLA-A3001 transfected HMy2.CIR cells; conditions: 15 μM unlabeled peptide, reference peptide ASRELK(FITC)VSY 300 nM, 24 h, 4 °C
The answer is to be given in %; state only the numeric part.

// known answers, use as guide
{"columns": ["SEQUENCE TEXT", "15 μM inhibition (%)"],
 "data": [
  ["ATRFASVYA [Epitope D65, S protein 344-352]", 79.92],
  ["RTRSMWSFN [Epitope B36, M protein 105-113]", 73.20]
]}

# evaluate next
Exercise: What 15 μM inhibition (%) value was documented for this sequence, SSRVPDLLV [Epitope A25, E protein 67-75] ?
Key: 33.15

---

Listed here: items and their measured 15 μM inhibition (%).
molecular target: HLA-A0206 (Homo sapiens, UniProt P04439, D140Y/D185E/D98H/E176V/E277Q/F33Y/G131W/G231S/I119V/I121R/I166T/I218V/L300P/L318F/N151K/N90K/P208A/P217A/Q86G/Q94H/R138H/R169H/T345S); assay: Competitive peptide binding assay, HLA-A0206 transfected HMy2.CIR cells; settings: HLA-A0206; 15 μM unlabeled peptide, reference peptide FLPSDK(FITC)FPSV 300 nM, 24 h, 4 °C
The answer is to be given in %; state only the numeric part.

// known answers, use as guide
{"columns": ["SEQUENCE TEXT", "UNITS SYMBOL", "15 μM inhibition (%)"],
 "data": [
  ["QTNSPRRAR [Epitope D78, S protein 677-685]", "%", 8.34],
  ["GLMWLSYFI [Epitope B1, M protein 89-97]", "%", 60.37],
  ["VTLACFVLA [Epitope B12, M protein 60-68]", "%", 32.60]
]}

Exercise: What 15 μM inhibition (%) value was documented for this sequence, LQSYGFQPT [Epitope D26, S protein 492-500] ?
Key: 68.10

Exercise: What 15 μM inhibition (%) value was documented for this sequence, FLFLTWICLL [Epitope B4, M protein 26-35] ?
Key: 14.34

Exercise: What 15 μM inhibition (%) value was documented for this sequence, KLLEQWNLV [Epitope B2, M protein 15-23] ?
Key: 54.89

Exercise: What 15 μM inhibition (%) value was documented for this sequence, IAMACLVGL [Epitope B11, M protein 82-90] ?
Key: 43.40

---

target: HLA-A0206 (Homo sapiens, UniProt P04439, D140Y/D185E/D98H/E176V/E277Q/F33Y/G131W/G231S/I119V/I121R/I166T/I218V/L300P/L318F/N151K/N90K/P208A/P217A/Q86G/Q94H/R138H/R169H/T345S); experiment: Competitive peptide binding assay, HLA-A0206 transfected HMy2.CIR cells; details: HLA-A0206; 15 μM unlabeled peptide, reference peptide FLPSDK(FITC)FPSV 300 nM, 24 h, 4 °C
Listed here: items and their measured 15 μM inhibition (%).
The answer is to be given in %; state only the numeric part.

// known answers, use as guide
{"columns": ["SEQUENCE TEXT", "15 μM inhibition (%)"],
 "data": [
  ["FVFLVLLPLV [Epitope D12, S protein 2-11]", 29.07],
  ["FIEDLLFNK [Epitope D42, S protein 817-825]", 12.78],
  ["NLLKDCPAV [Epitope R6, RdRp protein 88-96]", 18.64],
  ["FVSNGTHWFV [Epitope D33, S protein 1095-1104]", 68.19],
  ["QTVTLLPAA [Epitope C10, N protein 390-398]", 31.68]
]}

Exercise: What 15 μM inhibition (%) value was documented for this sequence, LALLLLDRL [Epitope C16, N protein 219-227] ?
Key: 13.69

Exercise: What 15 μM inhibition (%) value was documented for this sequence, LLLDRLNQL [Epitope C1, N protein 222-230] ?
Key: 21.77

Exercise: What 15 μM inhibition (%) value was documented for this sequence, NTASWFTAL [Epitope C12, N protein 48-56] ?
Key: 36.25
